Where do the numbers come from? From the supplement of paper PMC11246515.

Listed sequences paired with reported total protein half-life in vivo
Assay: total protein half-life in vivo (active degradation + dilution); higher = more stable protein
Conditions: wild type E. coli NCM3722; growth: N-lim chemostat; doubling time 6 h
All answers are understood in h, so give the number only.

[[record]]
sequencecode = "MATYLIGDVHGCYDELIALLHKVEFTPGKDTLWLTGDLVARGPGSLDVLRYVKSLGDSVRLVLGNHDLHLLAVFAGISRNKPKDRLTPLLEAPDADELLNWLRRQPLLQIDEEKKLVMAHAGITPQWDLQTAKECARDVEAVLSSDSYPFFLDAMYGDMPNNWSPELRGLGRLRFITNAFTRMRFCFPNGQLDMYSKESPEEAPAPLKPWFAIPGPVAEEYSIAFGHWASLEGKGTPEGIYALDTGCCWGGTLTCLRWEDKQYFVQPSNRHKDLGEAAAS"
val = 4.03

[[record]]
sequencecode = "MMRIALFLLTNLAVMVVFGLVLSLTGIQSSSVQGLMIMALLFGFGGSFVSLLMSKWMALRSVGGEVIEQPRNERERWLVNTVATQARQAGIAMPQVAIYHAPDINAFATGARRDASLVAVSTGLLQNMSPDEAEAVIAHEISHIANGDMVTMTLIQGVVNTFVIFISRILAQLAAGFMGGNRDEGEESNGNPLIYFAVATVLELVFGILASIITMWFSRHREFHADAGSAKLVGREKMIAALQRLKTSYEPQEATSMMALCINGKSKSLSELFMTHPPLDKRIEALRTGEYLK"
val = 5.48

[[record]]
sequencecode = "MMKKFIAPLLALLVSGCQIDPYTHAPTLTSTDWYDVGMEDAISGSAIKDDDAFSDSQADRGLYLKGYAEGQKKTCQTDFTYARGLSGKSFPASCNNVENASQLHEVWQKGADENASTIRLN"
val = 3.97


Look at this sequence and give its reported total protein half-life in vivo. MGKAVIAIHGGAGAISRAQMSLQQELRYIEALSAIVETGQKMLEAGESALDVVTEAVRLLEECPLFNAGIGAVFTRDETHELDACVMDGNTLKAGAVAGVSHLRNPVLAARLVMEQSPHVMMIGEGAENFAFARGMERVSPEIFSTSLRYEQLLAARKEGATVLDHSGAPLDEKQKMGTVGAVALDLDGNLAAATSTGGMTNKLPGRVGDSPLVGAGCYANNASVAVSCTGTGEVFIRALAAYDIAALMDYGGLSLAEACERVVMEKLPALGGSGGLIAIDHEGNVALPFNTEGMYRAWGYAGDTPTTGIYREKGDTVATQ 3.47

Look at this sequence and give its reported total protein half-life in vivo. MNSCDFRVFLQEFGTTVHLSLPGSVSEKERLLLKLLMQGMSVTEISQYRNRSAKTISHQKKQLFEKLGIQSDITFWRDIFFQYNPEIISATGSNSHRYINDNHYHHIVTPEAISLALENHEFKPWIQPVFCAQTGVLTGCEVLVRWEHPQTGIIPPDQFIPLAESSGLIVIMTRQLMKQTADILMPVKHLLPDNFHIGINVSAGCFLAAGFEKECLNLVNKLGNDKIKLVLELTERNPIPVTPEARAIFDSLHQHNITFALDDFGTGYATYRYLQAFPVDFIKIDKSFVQMASVDEISGHIVDNIVELARKPGLSIVAEGVETQEQADLMIGKGVHFLQGYLYSPPVPGNKFISEWVMKAGG 5.94

Look at this sequence and give its reported total protein half-life in vivo. MTLEWWFAYLLTSIILSLSPGSGAINTMTTSLNHGYRGAVASIAGLQTGLAIHIVLVGVGLGTLFSRSVIAFEVLKWAGAAYLIWLGIQQWRAAGAIDLKSLASTQSRRHLFQRAVFVNLTNPKSIVFLAALFPQFIMPQQPQLMQYIVLGVTTIVVDIIVMIGYATLAQRIALWIKGPKQMKALNKIFGSLFMLVGALLASARHA [P0AG34] 2.62

Look at this sequence and give its reported total protein half-life in vivo. MFPFRRNVLAFAALLALSSPVLAGKLAIVIDDFGYRPHNENQVLAMPSAISVAVLPDSPHAREMATKAHNSGHEVLIHLPMAPLSKQPLEKNTLRPEMSSDEIERIIRSAVNNVPYAVGINNHMGSKMTSNLFGMQKVMQALERYNLYFLDSVTIGNTQAMRAAQGTGVKVIKRKVFLDDSQNEADIRVQFNRAIDLARRNGSTIAIGHPHPATVRVLQQMVYNLPPDITLVKASSLLNEPQVDTSTPPKNAVPDAPRNPFRGVKLCKPKKPIEPVYANRFFEVLSESISQSTLIVYFQHQWQGWGKQPEAAKFNASAN 6.68

Look at this sequence and give its reported total protein half-life in vivo. MTWLPLNPIPLKDRVSMIFLQYGQIDVIDGAFVLIDKTGIRTHIPVGSVACIMLEPGTRVSHAAVRLAAQVGTLLVWVGEAGVRVYASGQPGGARSDKLLYQAKLALDEDLRLKVVRKMFELRFGEPAPARRSVEQLRGIEGSRVRATYALLAKQYGVTWNGRRYDPKDWEKGDTINQCISAATSCLYGVTEAAILAAGYAPAIGFVHTGKPLSFVYDIADIIKFDTVVPKAFEIARRNPGEPDREVRLACRDIFRSSKTLAKLIPLIEDVLAAGEIQPPAPPEDAQPVAIPLPVSLGDAGHRSS 1.32
